Reference for the values: ChEMBL document CHEMBL5724914

details: human gut metagenome, 24 h, 2 µM; further: call rule not given here

[
  {
    "compound": "COC(=O)[C@H](c1ccccc1Cl)N1CCc2sccc2C1.O=S(=O)(O)O [CLOPIDOGREL BISULFATE]",
    "Bacterial Biotransformation": "Compound metabolized"
  },
  {
    "compound": "CN1CCN(C2=Nc3ccccc3Oc3ccc(Cl)cc32)CC1.O=C(O)CCC(=O)O [LOXAPINE SUCCINATE]",
    "Bacterial Biotransformation": "Compound NOT metabolized"
  },
  {
    "compound": "CC[C@@]1(O)C(=O)OCc2c1cc1n(c2=O)Cc2cc3c(CN(C)C)c(O)ccc3nc2-1",
    "Bacterial Biotransformation": "Compound NOT metabolized"
  },
  {
    "compound": "CCCN(CCC)CCc1cccc2c1CC(=O)N2",
    "Bacterial Biotransformation": "Compound metabolized"
  },
  {
    "compound": "COCCCC/C(=N\\OCCN)c1ccc(C(F)(F)F)cc1.O=C(O)/C=C\\C(=O)O [FLUVOXAMINE MALEATE]",
    "Bacterial Biotransformation": "Compound metabolized"
  },
  {
    "compound": "CN1[C@@H]2CC[C@H]1C[C@@H](OC(=O)[C@H](CO)c1ccccc1)C2",
    "Bacterial Biotransformation": "Compound metabolized"
  },
  {
    "compound": "CN1[C@@H]2CC[C@H]1C[C@@H](OC(=O)c1c[nH]c3ccccc13)C2",
    "Bacterial Biotransformation": "Compound NOT metabolized"
  },
  {
    "compound": "CCOC(=O)C1=C(C)NC(C)=C(C(=O)OC)C1c1cccc([N+](=O)[O-])c1 (stereo not drawn)",
    "Bacterial Biotransformation": "Compound metabolized"
  }
]
